Target: T1, LTKTG-EGFL (human LTK amino acids 63-420) (human, UniProt P29376 63-420)
T1 construct: Fc-His6 tag removed by caspase 3; also called LTK (in BLI, SEC-MALLS and ITC)
T1 sequence: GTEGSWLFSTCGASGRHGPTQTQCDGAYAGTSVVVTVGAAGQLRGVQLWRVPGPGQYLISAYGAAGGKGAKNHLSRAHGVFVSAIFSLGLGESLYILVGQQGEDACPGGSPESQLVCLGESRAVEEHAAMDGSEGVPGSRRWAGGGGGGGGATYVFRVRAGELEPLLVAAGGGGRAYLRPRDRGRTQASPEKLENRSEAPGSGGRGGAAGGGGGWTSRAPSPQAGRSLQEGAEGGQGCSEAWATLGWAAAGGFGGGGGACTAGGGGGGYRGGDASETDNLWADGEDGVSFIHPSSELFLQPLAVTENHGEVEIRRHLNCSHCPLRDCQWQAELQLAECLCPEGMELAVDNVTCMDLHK
Test: BLI, biotinylated ALKAL1 F76E on streptavidin biosensors, LTKTG-EGFL in solution, dilution series 6.4 µM-400 nM, biphasic fit, component 1
endpoint: Kd (nM)
Please respond with the number in nM and leave the unit unwritten.

### Prompt Quick one: Kd of ALKAL1^F76E (residues 57-129) (ligand, human, UniProt Q6UXT8 57-129, looked up, range 57-129; Avi-tagged and biotinylated in BLI; used as purified protein in SEC-MALLS and Ba/F3 assays; also called ALKAL1 site 2 mutant) PSGSRSAEIFPRDSNLKDKEIKHFTGPVTFSPECSKHFHRLYYNTRECSTPAYYKRCARLLTRLAVSPLCSQT ?
### Response 350
